These measurements were taken from ChEMBL document CHEMBL3585263.

- ASSAY METHOD TEXT: Clearance in Balb/c mouse at 10 mg/kg, po and 1 mg/kg, iv
- Assay type: ADME, organism-based
- CONDITION CONTEXT: in vivo
OBSERVATION TYPE: clearance

Reported clearance for Cc1cc(C)nc(N2C[C@H]3CN(C(=O)c4c(F)cccc4-n4nccn4)C[C@H]3C2)n1 was 36 mL/min/kg

* * *

- ASSAY METHOD TEXT: Chemical stability of the compound in pH 4 acetate buffer assessed as compound remaining at room temperature after 1 week by HPLC analysis
- Type: physicochemical
- CONDITION CONTEXT: read-out: Stability
OBSERVATION TYPE: remaining at 168 h (%)
Write the number in % without appending the unit.

// field: remaining at 168 h; key: Cc1cc(C)nc(N2C[C@H]3CN(C(=O)c4c(F)cccc4-n4nccn4)C[C@H]3C2)n1 ; value = 99.7
